Kindly state IC50 for each of the entries shown.
# tgt: CDK1/CyclinB (Homo sapiens (Human))
# Sequence (P06493 whole entry): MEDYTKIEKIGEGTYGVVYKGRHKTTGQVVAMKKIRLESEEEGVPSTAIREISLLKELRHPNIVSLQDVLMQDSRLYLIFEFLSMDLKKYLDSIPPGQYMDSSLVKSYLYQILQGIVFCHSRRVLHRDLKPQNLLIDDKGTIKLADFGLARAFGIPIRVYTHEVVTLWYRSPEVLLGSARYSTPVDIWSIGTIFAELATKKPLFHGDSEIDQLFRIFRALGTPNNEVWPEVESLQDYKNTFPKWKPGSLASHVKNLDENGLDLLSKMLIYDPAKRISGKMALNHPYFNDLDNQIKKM
# Sequence (P14635 whole entry partner): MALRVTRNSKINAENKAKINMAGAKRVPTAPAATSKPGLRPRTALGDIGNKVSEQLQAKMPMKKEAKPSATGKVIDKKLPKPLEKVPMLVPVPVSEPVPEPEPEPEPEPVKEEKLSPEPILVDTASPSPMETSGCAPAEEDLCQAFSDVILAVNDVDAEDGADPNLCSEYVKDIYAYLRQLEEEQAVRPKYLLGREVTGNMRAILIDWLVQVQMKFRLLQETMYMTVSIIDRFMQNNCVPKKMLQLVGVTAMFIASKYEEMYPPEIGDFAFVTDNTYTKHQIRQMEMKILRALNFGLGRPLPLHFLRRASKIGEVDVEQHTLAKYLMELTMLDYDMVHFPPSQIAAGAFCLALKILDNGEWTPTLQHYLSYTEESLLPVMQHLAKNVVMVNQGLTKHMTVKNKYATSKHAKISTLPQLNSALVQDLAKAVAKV
# assay_details: CDK1/CyclinB kinase inhibitory activity (Caliper mobility shift)
# measurement_conditions: read-out: CDK1/Cyclin B1 IC50

molecule: N#Cc1cnc(Nc2ccc(S(N)(=O)=O)cc2)nc1OCC1(O)CCCCC1
IC50: 100 to 1000 nM
--
molecule: CC(C)NS(=O)(=O)c1ccc(Nc2ncc(C#N)c(OC3CCCC3(C)O)n2)cc1 (single isomer, unassigned) [Example 35b]
IC50: 10 to 100 nM
--
molecule: CC1(O)CCCC1Oc1nc(Nc2ccc(S(N)(=O)=O)cc2)ncc1C#N (single isomer, unassigned) [Example 23a]
IC50: < 10 nM

From here, focus on the item given below.
I am curious: what IC50 value has been reported for C[C@]1(O)CCC[C@H]1Oc1nc(NC2CCN(S(C)(=O)=O)CC2)ncc1C#N (relative stereo) [Example 3a] ?
100 to 1000 nM
